# assayExplanation: amyloid nucleation score (Sup35N fusion, yeast selection) (log enrichment); library NNK1; higher = more nucleation; inactive = no reads after selection;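 note: zero at mode of non-aggregating sequences after 7 days selection at 30°C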
assayEndpoint: amyloid nucleation score

CVTAVIRDGWGWNYCCRDHR; inactive
GRHRRSRRM; inactive
LGHIILSAFFYRSFNLEVSL; inactive
VSTQIRRDGYDYAAVGHC; 0.009

Okay, here is my list. What is amyloid nucleation score for each of these?
1. HGHENVDWQKITDIGGRENC
2. IRMVFAMVSYSCDYRATAGT

Result:
1. -0.715
2. 2.65

Please state, for each entry, its recorded amyloid nucleation score.
1. LTLALESLEPIRLTRNMWAL
2. CKKSCGSVRSNASLTKDWSN
3. NGFSDRKLDFHTRHMGH
4. KRCFVLWLHRLWVGVNVFAD
5. LLNEDYTGHSCDPEGEDTR
6. DGCIKLWGF
7. CLPNSYGAV
8. CGPELNESQG

Result:
[-0.411, -0.097, -0.147, 0.237, 0.589, 0.779, 0.435, -0.485]

Problem: Given IASFVEERLSEIPYLATLGL , state its recorded amyloid nucleation score.
Result: -0.385
